TGT: T1, Histidine-tagged human CD40 protein (hCD40-His) (human, UniProt P25942 21-193)
T1 construct: not shown: histidine tag
TEST DETAILS: SPR, Biacore T200; antibody on Protein A chip, hCD40-His injected; 1:1 fit
RECORDED ENDPOINT: kon (M⁻¹ s⁻¹)
Only the number, expressed in M⁻¹ s⁻¹, is required.

BINDER: 4H6-H1K1-IgG4 (antibody, V domains shown, Humanized) VH: QVQLQESGPGLVKPSQTLSLTCTVSGDSVSSGYWNWIRKHPGKKLEWIGFISYSGSTYYTPSLKSRVTISRDTSKNQFSLKLSSVTAADTAVYYCARFRRYDDGVDYWGQGTLVTVSS VL: DIQMTQSPSAMSASVGDRVTITCRASHEISGYLSWFQQKPGGVIKRLINAASTLASGVPSRFSGSRSGTEFTLTISSLQPEDFATYYCLQYSSYPWTFGGGTKLEIK
kon (M⁻¹ s⁻¹): 21700

## Task Query (binder): 6A7-H1K3-IgG4 (antibody, V domains shown, Humanized) VH: QVQLVQSGAEVKKPGASVKVSCKASGYTFISYYIYWVRQAPGQGLEWMGGINPRNGGTNFNEKFKSRVTLTVDTSISTAYMELSRLRSEDTAVYYCARHGNGVYWGQGTTVTVSS VL: DVVMTQSPLSLPVTLGDPASISCRSSQSLLHSNGNTYLHWYQQRPGQSPNHLIYQVSNRFSGVPDRFSGSGSGTDFTLKISRVEAEDVGVYFCSQTTHVPWTFGGGTKLEIK ; field requested: kon
## Result 28700

Data origin, for the record: patent US20250034271A1
